FYI, the data here is from ChEMBL document CHEMBL2331252.

Give MIC for every item shown.
# Test system: Salmonella typhimurium
# assay-notes: Antibacterial activity against Salmonella typhimurium MTCC 1251 after 24 hrs
# Assay type: functional, Salmonella enterica subsp. enterica serovar Typhimurium
# run-parameters: Salmonella enterica, MTCC 1251, 24 h
Answer with the figure and its unit, nothing else.

Example compounds with recorded MIC:
> print(dat)
                                 cpd.smiles  metric  recorded.value
1  Cc1ccc2c(c1)[C@]1(C(=O)N2)N(C)C[C@](C#N)(C(=O)c2c[nH]c3ccccc23)[C@]12C(=O)Nc1ccccc12     MIC       500 µg/mL
2  C=CCN1C(=O)[C@@]2(c3ccccc31)N(C)C[C@](C#N)(C(=O)c1c[nH]c3ccccc13)[C@]21C(=O)Nc2ccccc21     MIC      62.5 µg/mL
3  CN1C(=O)[C@@]2(c3cc(I)ccc31)N(C)C[C@](C#N)(C(=O)c1c[nH]c3ccccc13)[C@]21C(=O)Nc2ccccc21     MIC       500 µg/mL

Please look up its MIC: CN1C(=O)[C@@]2(c3cc(F)ccc31)N(C)C[C@](C#N)(C(=O)c1c[nH]c3ccccc13)[C@]21C(=O)Nc2ccccc21
500 µg/mL

---

Give inhibition zone (IZ) for every item shown.
# Tested on: Staphylococcus aureus
# assay-notes: Antibacterial activity against Staphylococcus aureus MTCC 96 at 1 mg/disc after 24 hrs by disc diffusion method
# Assay type: functional
Answers are plain numbers, in mm.

cpd-smiles	metric	recorded-value
CN[C@@H]1[C@H](O[C@H]2[C@H](O[C@H]3[C@H](O)[C@@H](O)[C@H](N=C(N)N)[C@@H](O)[C@@H]3N=C(N)N)O[C@@H](C)[C@]2(O)C=O)O[C@@H](CO)[C@H](O)[C@H]1O	inhibition zone (IZ)	14
CN1C(=O)[C@@]2(c3cc(Cl)ccc31)N(C)C[C@](C#N)(C(=O)c1c[nH]c3ccccc13)[C@]21C(=O)Nc2ccccc21	inhibition zone (IZ)	9

Kindly consider the entry below.
Please look up its inhibition zone (IZ): C#CCN1C(=O)[C@@]2(c3ccccc31)N(C)C[C@](C#N)(C(=O)c1c[nH]c3ccccc13)[C@]21C(=O)Nc2ccccc21
12

---

# Test system: Staphylococcus aureus
# assay-notes: Antibacterial activity against Staphylococcus aureus MTCC 96 at 1 mg/disc after 24 hrs by disc diffusion method
# Assay type: functional
# cutoff 9 mm applies to inhibition zone (IZ); >= gives 1 (yes), < gives 0 (no)

Look over these answered cases.
> print(dat)
                                   molecule        measured.target  answer.label
1  CN1C[C@](C#N)(C(=O)c2c[nH]c3ccccc23)[C@]2(C(=O)Nc3ccccc32)[C@@]12C(=O)N(c1ccccc1)c1ccccc12  Staphylococcus aureus        0 (no)
2  CN1C[C@](C#N)(C(=O)c2c[nH]c3ccccc23)[C@]2(C(=O)Nc3ccccc32)[C@@]12C(=O)Nc1ccccc12  Staphylococcus aureus        0 (no)
3  CN1C(=O)[C@@]2(c3cc(I)ccc31)N(C)C[C@](C#N)(C(=O)c1c[nH]c3ccccc13)[C@]21C(=O)Nc2ccccc21  Staphylococcus aureus       1 (yes)
4  CN1C[C@](C#N)(C(=O)c2c[nH]c3ccccc23)[C@]2(C(=O)Nc3ccccc32)C12C(=O)c1cccc3cccc2c13 (some centres not stated)  Staphylococcus aureus       1 (yes)

Now consider a different molecule.
Reported inhibition zone (IZ) at or above 9 mm? CN1C[C@](C#N)(C(=O)c2c[nH]c3ccccc23)[C@]2(C(=O)Nc3ccccc32)[C@@]12C(=O)Nc1ccc(F)cc12
1 (yes)

---

# Test system: Staphylococcus aureus
# assay-notes: Antibacterial activity against Staphylococcus aureus MTCC 96 at 1 mg/disc after 24 hrs by disc diffusion method
# Type: functional
metric: inhibition zone (IZ) (mm)
Give bare numbers, in mm.

Example molecules with recorded inhibition zone (IZ):
> print(dat)
                                 cpd.smiles  unit.symbol  recorded.value
1  CN1C(=O)[C@@]2(c3cc(F)ccc31)N(C)C[C@](C#N)(C(=O)c1c[nH]c3ccccc13)[C@]21C(=O)Nc2ccccc21           mm              10
2  CCCCCCN1C(=O)[C@@]2(c3ccccc31)N(C)C[C@](C#N)(C(=O)c1c[nH]c3ccccc13)[C@]21C(=O)Nc2ccccc21           mm              11
3  CN1C[C@](C#N)(C(=O)c2c[nH]c3ccccc23)[C@]2(C(=O)Nc3ccccc32)[C@@]12C(=O)Nc1ccc(I)cc12           mm              10
4  C=CCN1C(=O)[C@@]2(c3ccccc31)N(C)C[C@](C#N)(C(=O)c1c[nH]c3ccccc13)[C@]21C(=O)Nc2ccccc21           mm              11
5  CCCCN1C(=O)[C@@]2(c3ccccc31)N(C)C[C@](C#N)(C(=O)c1c[nH]c3ccccc13)[C@]21C(=O)Nc2ccccc21           mm               9
6  CN1C(=O)[C@@]2(c3ccccc31)N(C)C[C@](C#N)(C(=O)c1c[nH]c3ccccc13)[C@]21C(=O)Nc2ccccc21           mm              13

Please look up its inhibition zone (IZ): CN1C[C@](C#N)(C(=O)c2c[nH]c3ccccc23)[C@]2(C(=O)Nc3ccccc32)[C@@]12C(=O)N(Cc1ccccc1)c1ccccc12
11

---

Give inhibition zone (IZ) for every item shown.
# assay-notes: Antifungal activity against Malassezia pachydermatis at 1 mg/disc after 48 hrs by disc diffusion method
# Assay type: functional
Numbers only, in mm.

> print(dat)
                                   compound  recorded.value
1  CN1C[C@](C#N)(C(=O)c2c[nH]c3ccccc23)[C@]2(C(=O)Nc3ccccc32)[C@@]12C(=O)N(Cc1ccccc1)c1ccccc12              10
2  CN1C(=O)[C@@]2(c3cc([N+](=O)[O-])ccc31)N(C)C[C@](C#N)(C(=O)c1c[nH]c3ccccc13)[C@]21C(=O)Nc2ccccc21              12
3  CCOC(=O)CN1C(=O)[C@@]2(c3ccccc31)N(C)C[C@](C#N)(C(=O)c1c[nH]c3ccccc13)[C@]21C(=O)Nc2ccccc21              11

Please go through the list and note inhibition zone (IZ) for each compound.
1. CN1C(=O)[C@@]2(c3cc(I)ccc31)N(C)C[C@](C#N)(C(=O)c1c[nH]c3ccccc13)[C@]21C(=O)Nc2ccccc21
2. CC(=O)N1CCN(c2ccc(OCC3COC(Cn4ccnc4)(c4ccc(Cl)cc4Cl)O3)cc2)CC1 (stereo unspecified)
3. CN1C[C@](C#N)(C(=O)c2c[nH]c3ccccc23)[C@]2(C(=O)Nc3ccccc32)[C@@]12C(=O)N(c1ccccc1)c1ccccc12

1: 11; 2: 26; 3: 14

---

# Test system: Klebsiella aerogenes
# assay-notes: Antibacterial activity against Enterobacter aerogenes MTCC 111 after 24 hrs
# Format: functional
# run-parameters: MTCC 111, 24 h
Give MIC for every item shown.
Answers are plain numbers, in µg/mL.

Example compounds with recorded MIC:
compound	recorded-value
CN1C[C@](C#N)(C(=O)c2c[nH]c3ccccc23)[C@]2(C(=O)Nc3ccccc32)[C@@]12C(=O)N(Cc1ccccc1)c1ccccc12	500
CN[C@@H]1[C@H](O[C@H]2[C@H](O[C@H]3[C@H](O)[C@@H](O)[C@H](N=C(N)N)[C@@H](O)[C@@H]3N=C(N)N)O[C@@H](C)[C@]2(O)C=O)O[C@@H](CO)[C@H](O)[C@H]1O [STREPTOMYCIN]	25

Kindly consider the entry below.
Please look up its MIC: CN1C[C@](C#N)(C(=O)c2c[nH]c3ccccc23)[C@]2(C(=O)Nc3ccccc32)[C@@]12C(=O)Nc1ccccc12
500

---

# Test system: Staphylococcus aureus
# assay-notes: Antibacterial activity against Staphylococcus aureus MTCC 96 at 1 mg/disc after 24 hrs by disc diffusion method
# Assay type: functional
Give inhibition zone (IZ) for every item shown.
Answers are plain numbers, in mm.

Please go through the list and note inhibition zone (IZ) for each compound.
1. CN1C[C@](C#N)(C(=O)c2c[nH]c3ccccc23)[C@]2(C(=O)Nc3ccccc32)[C@@]12C(=O)Nc1ccc(Br)cc12
2. CN1C[C@](C#N)(C(=O)c2c[nH]c3ccccc23)[C@]2(C(=O)Nc3ccccc32)[C@@]12C(=O)Nc1ccc(Cl)cc12
3. CCN1C(=O)[C@@]2(c3ccccc31)N(C)C[C@](C#N)(C(=O)c1c[nH]c3ccccc13)[C@]21C(=O)Nc2ccccc21
4. CCOC(=O)CN1C(=O)[C@@]2(c3ccccc31)N(C)C[C@](C#N)(C(=O)c1c[nH]c3ccccc13)[C@]21C(=O)Nc2ccccc21

11
9
9
9
